Listing: z-score of selected compounds
Target: NADPH oxidase 4 (Homo sapiens) (UniProt Q9NPH5)
Sequence (Q9NPH5 whole entry, looked up): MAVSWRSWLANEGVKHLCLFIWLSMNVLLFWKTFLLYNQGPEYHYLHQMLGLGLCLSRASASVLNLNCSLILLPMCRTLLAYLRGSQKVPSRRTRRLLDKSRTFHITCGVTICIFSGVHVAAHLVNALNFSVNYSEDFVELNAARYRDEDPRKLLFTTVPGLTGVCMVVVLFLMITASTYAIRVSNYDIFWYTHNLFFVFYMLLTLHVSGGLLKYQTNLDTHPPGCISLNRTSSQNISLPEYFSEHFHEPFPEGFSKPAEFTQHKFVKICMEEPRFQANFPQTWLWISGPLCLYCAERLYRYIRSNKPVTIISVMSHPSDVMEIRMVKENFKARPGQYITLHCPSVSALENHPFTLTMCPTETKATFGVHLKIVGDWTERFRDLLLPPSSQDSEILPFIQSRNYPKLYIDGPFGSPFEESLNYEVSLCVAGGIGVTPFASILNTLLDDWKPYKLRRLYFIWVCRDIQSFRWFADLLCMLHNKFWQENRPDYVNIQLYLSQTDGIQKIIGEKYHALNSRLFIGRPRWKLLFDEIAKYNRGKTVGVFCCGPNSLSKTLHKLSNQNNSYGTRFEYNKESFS
Assay: NOX4-dependent H2O2 signal modulators, primary screen, NOX inhibitor project, cell-based, HEK293-NOX4, tetracycline-induced, Amplex Red fluorescence (AID 1160)
Conditions: 45 min, higher = more signal, called active from +8 up or from −8 down
Measured Metric: z-score

[
  {
    "Compound": "O=C1C[C@]2(c3ccc([N+](=O)[O-])cc3)C(=O)N(CC(F)(F)F)c3cc(CO)ccc3[C@H]2N1CC12CC3CC(CC(C3)C1)C2",
    "Target Entity": "NADPH oxidase 4 (Homo sapiens) (UniProt Q9NPH5)",
    "Number": 0.375
  },
  {
    "Compound": "O=C(CS)NCCCCCCNC(=O)[C@H]1C[C@H]2C(=O)NCC(=O)N2[C@H]1c1ccc(O)cc1",
    "Target Entity": "NADPH oxidase 4 (Homo sapiens) (UniProt Q9NPH5)",
    "Number": 0.407
  },
  {
    "Compound": "Cc1ccc(S[C@]2(C(=O)NCC(C)C)CC(=O)N(Cc3ccccc3)[C@@H]2c2ccc(CO)cc2I)cc1",
    "Target Entity": "NADPH oxidase 4 (Homo sapiens) (UniProt Q9NPH5)",
    "Number": -2.23
  },
  {
    "Compound": "O=C/C=C/c1ccc(Cl)cc1",
    "Target Entity": "NADPH oxidase 4 (Homo sapiens) (UniProt Q9NPH5)",
    "Number": -0.869
  },
  {
    "Compound": "NCCCCCCNC(=O)[C@H]1C[C@H]2C(=O)NCC(=O)N2[C@H]1c1cccc(OCCO)c1",
    "Target Entity": "NADPH oxidase 4 (Homo sapiens) (UniProt Q9NPH5)",
    "Number": 0.513
  },
  {
    "Compound": "COC(=O)C[C@@H]1C[C@H](C)[C@]2(O1)C(=O)N(Cc1ccccc1)c1ccc(NC(C)=O)cc12",
    "Target Entity": "NADPH oxidase 4 (Homo sapiens) (UniProt Q9NPH5)",
    "Number": -1.06
  },
  {
    "Compound": "COCCOC(=O)N1C(=O)[C@@]2(c3cc(C#CCC(C(=O)OC)C(=O)OC)ccc31)[C@H](c1ccccc1OCCO)N1[C@H](c3ccccc3)[C@H](c3ccccc3)OC(=O)[C@H]1[C@@H]2C(=O)N1CCc2cc(OC)c(OC)cc2C1",
    "Target Entity": "NADPH oxidase 4 (Homo sapiens) (UniProt Q9NPH5)",
    "Number": 1.56
  },
  {
    "Compound": "CC(C)Cc1ccc(CN2CC[C@@H](NS(=O)(=O)c3ccccc3)C2)cc1",
    "Target Entity": "NADPH oxidase 4 (Homo sapiens) (UniProt Q9NPH5)",
    "Number": -0.907
  },
  {
    "Compound": "COc1ccccc1CN1C(=O)c2ccccc2[C@@H](C(=O)NCCN2CCOCC2)[C@@H]1c1ccc(CO)cc1",
    "Target Entity": "NADPH oxidase 4 (Homo sapiens) (UniProt Q9NPH5)",
    "Number": -0.65
  },
  {
    "Compound": "CC(=O)Nc1cc(Br)ccc1C(=O)O",
    "Target Entity": "NADPH oxidase 4 (Homo sapiens) (UniProt Q9NPH5)",
    "Number": -0.128
  },
  {
    "Compound": "CC(C)C(=C=CC[C@@H](O)c1ccccc1OCCO)C[C@@H](O)c1ccccn1",
    "Target Entity": "NADPH oxidase 4 (Homo sapiens) (UniProt Q9NPH5)",
    "Number": -0.725
  },
  {
    "Compound": "O=C1OCCC=C[C@H]2OC34C=CCN(Cc5ccccc5)C(=O)[C@H]3N(CCCO)C(=O)[C@@H]4C12 (stereo not given in full)",
    "Target Entity": "NADPH oxidase 4 (Homo sapiens) (UniProt Q9NPH5)",
    "Number": -2.93
  },
  {
    "Compound": "CC(=O)NCCCC[C@@H]1NC(=O)[C@@H]2C[C@H](C(=O)NCCCCCCNC(=O)CS)[C@H](c3ccc(O)cc3)N2C1=O",
    "Target Entity": "NADPH oxidase 4 (Homo sapiens) (UniProt Q9NPH5)",
    "Number": -0.173
  },
  {
    "Compound": "CO[C@H]1O[C@H](CO)[C@@H](OC(=O)Nc2ccc(Oc3ccccc3)cc2)[C@H](OC(=O)Nc2ccccc2)[C@H]1OC(=O)Nc1ccccc1",
    "Target Entity": "NADPH oxidase 4 (Homo sapiens) (UniProt Q9NPH5)",
    "Number": -3.18
  },
  {
    "Compound": "CCCC[C@@H]1C[C@H]1[C@@H](NC(=O)c1ccc(-c2ccccc2)cc1)c1ccc(-c2ccccc2)cc1",
    "Target Entity": "NADPH oxidase 4 (Homo sapiens) (UniProt Q9NPH5)",
    "Number": -2
  },
  {
    "Compound": "O=C1N(CCS(=O)(=O)c2ccccc2)Cc2ccccc2C[C@]12N=C(c1ccc(OCCCO)cc1)O[C@@H]2c1ccccc1",
    "Target Entity": "NADPH oxidase 4 (Homo sapiens) (UniProt Q9NPH5)",
    "Number": 1
  },
  {
    "Compound": "C=CCC(OC(C)=O)[C@@H]1[C@@H](N(Cc2ccc(-c3cccc(C(F)(F)F)c3)o2)C(=O)c2ccc(C)cc2)c2cc(OCCCO)ccc2N1C(=O)c1ccc(-c2ccccc2)cc1 (stereo not given in full)",
    "Target Entity": "NADPH oxidase 4 (Homo sapiens) (UniProt Q9NPH5)",
    "Number": 0.822
  },
  {
    "Compound": "COC(=O)[C@@]1(Cc2ccccc2)[C@H]2c3cc(C(=O)N4CCCC4)n(C)c3C[C@H]2CN1C(=O)c1ccccc1",
    "Target Entity": "NADPH oxidase 4 (Homo sapiens) (UniProt Q9NPH5)",
    "Number": -0.653
  },
  {
    "Compound": "CN(C)C(=O)[C@@]1(CCC(=O)OC(C)(C)C)N=C(c2ccc(OCCCO)cc2)O[C@H]1c1ccccc1",
    "Target Entity": "NADPH oxidase 4 (Homo sapiens) (UniProt Q9NPH5)",
    "Number": -0.618
  },
  {
    "Compound": "Cc1ccc(S[C@]2(C(=O)NCC(C)C)CC(=O)N(Cc3ccccc3Cl)[C@@H]2c2ccc(CO)cc2)cc1",
    "Target Entity": "NADPH oxidase 4 (Homo sapiens) (UniProt Q9NPH5)",
    "Number": 0.717
  }
]
